The values you see were collected from ChEMBL document CHEMBL1156274.

Hi there, I'd appreciate the recorded pIC50 for every entry that follows.
# SYSTEM UNDER TEST: Interstitial collagenase (Homo sapiens)
# Sequence (P03956 whole entry): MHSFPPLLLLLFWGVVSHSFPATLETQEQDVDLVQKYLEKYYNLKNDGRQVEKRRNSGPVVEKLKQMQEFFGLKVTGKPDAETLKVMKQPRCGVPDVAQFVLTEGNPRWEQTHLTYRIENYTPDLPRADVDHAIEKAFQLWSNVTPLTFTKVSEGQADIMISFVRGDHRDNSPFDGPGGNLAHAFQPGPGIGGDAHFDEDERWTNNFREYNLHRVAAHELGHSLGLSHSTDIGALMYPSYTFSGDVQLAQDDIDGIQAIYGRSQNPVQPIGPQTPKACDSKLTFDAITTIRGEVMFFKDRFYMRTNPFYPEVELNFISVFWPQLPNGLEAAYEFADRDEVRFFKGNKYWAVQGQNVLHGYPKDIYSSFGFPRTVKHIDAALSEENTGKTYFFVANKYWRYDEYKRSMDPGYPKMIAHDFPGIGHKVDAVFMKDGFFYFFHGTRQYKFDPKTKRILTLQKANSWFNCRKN
# ASSAY TEXT: Inhibition of MMP1 by fluorometric assay
Answers are plain numbers, as −log10 of the molar value.

// known answers, use as guide
- ITEM SMILES: "CC#CCOc1ccc(S(=O)(=O)N[C@H](CCN2C(=O)c3ccccc3C2=O)C(=O)NO)cc1"
  pIC50: 6.46
- ITEM SMILES: "COc1ccc(S(=O)(=O)N(CC(C)C)[C@@H](C(=O)NO)C(C)C)cc1"
  pIC50: 7.25
- ITEM SMILES: "CC#CCOc1ccc(S(=O)(=O)N(CC(C)C)[C@H](CCN2C(=O)c3ccccc3C2=O)C(=O)NO)cc1"
  pIC50: 6.40

Please go through the list and note pIC50 for each molecule.
1. COc1ccc(S(=O)(=O)N(OC(C)C)[C@@H](C(=O)NO)C(C)C)cc1
2. CC(=O)NCC[C@@H](NS(=O)(=O)c1ccc(-c2ccccc2)cc1)C(=O)NO
3. O=C(NO)[C@@H](CCN1C(=O)c2ccccc2C1=O)NS(=O)(=O)c1ccc(-c2ccccc2C(F)(F)F)cc1

Solution:
[5.96, 6.71, 5.30]
